target.entity: sGC α1/β1 heterodimer (Homo sapiens (Human), UniProt Q02108+Q02153)
Sequence (Q02108 whole entry): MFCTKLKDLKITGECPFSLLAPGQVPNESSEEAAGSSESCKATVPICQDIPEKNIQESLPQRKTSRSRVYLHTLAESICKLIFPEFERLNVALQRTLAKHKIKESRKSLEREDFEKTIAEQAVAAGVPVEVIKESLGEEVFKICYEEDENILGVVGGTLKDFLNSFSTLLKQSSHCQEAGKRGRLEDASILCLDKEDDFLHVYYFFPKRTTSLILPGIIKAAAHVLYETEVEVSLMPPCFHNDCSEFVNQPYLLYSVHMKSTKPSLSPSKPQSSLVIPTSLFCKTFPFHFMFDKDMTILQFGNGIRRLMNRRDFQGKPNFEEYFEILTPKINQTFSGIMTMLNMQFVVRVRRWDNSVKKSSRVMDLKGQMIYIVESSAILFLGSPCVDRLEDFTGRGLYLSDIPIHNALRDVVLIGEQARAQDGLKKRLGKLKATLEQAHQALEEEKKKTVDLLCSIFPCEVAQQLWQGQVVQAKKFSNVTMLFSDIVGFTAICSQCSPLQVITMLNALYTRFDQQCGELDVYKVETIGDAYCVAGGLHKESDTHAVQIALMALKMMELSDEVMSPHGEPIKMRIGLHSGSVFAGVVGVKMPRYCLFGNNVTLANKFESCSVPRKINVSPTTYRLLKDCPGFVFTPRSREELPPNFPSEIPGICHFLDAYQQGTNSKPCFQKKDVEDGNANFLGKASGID
Sequence (Q02153 whole entry): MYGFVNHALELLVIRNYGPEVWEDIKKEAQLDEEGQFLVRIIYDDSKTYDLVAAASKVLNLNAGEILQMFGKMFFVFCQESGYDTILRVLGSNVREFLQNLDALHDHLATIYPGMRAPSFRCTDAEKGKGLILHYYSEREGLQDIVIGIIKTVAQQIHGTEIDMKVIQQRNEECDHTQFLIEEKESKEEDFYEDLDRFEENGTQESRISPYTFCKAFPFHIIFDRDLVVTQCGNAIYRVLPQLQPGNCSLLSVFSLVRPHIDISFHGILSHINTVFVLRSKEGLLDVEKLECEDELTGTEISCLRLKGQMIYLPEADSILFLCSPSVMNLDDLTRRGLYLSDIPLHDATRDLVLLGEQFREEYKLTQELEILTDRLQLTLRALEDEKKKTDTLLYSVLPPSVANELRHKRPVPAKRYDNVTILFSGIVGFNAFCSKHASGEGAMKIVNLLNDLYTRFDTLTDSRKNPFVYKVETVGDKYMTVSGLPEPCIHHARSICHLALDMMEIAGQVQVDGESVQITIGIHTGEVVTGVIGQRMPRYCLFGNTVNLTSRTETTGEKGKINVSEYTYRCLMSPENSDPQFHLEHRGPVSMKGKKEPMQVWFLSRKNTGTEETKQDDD
protocol.notes: Cell-based sGC functional assay (cyclic GMP assay for sGC activator: CASA assay)
assay.context: inflection point, 4P fit; CHO-K1/sGC cells; read-out: IP
metric.name: pEC50
pEC50 (log units): -log10 of the concentration in mol/L.

In the examples that follow, each entry is paired with its recorded pEC50.
molecule | metric.name | val
C[C@@]1(c2ccc(CCC(=O)O)cc2)C(=O)Nc2nc(-c3nn(CC4CC(F)(F)C4)c4cc(Cl)ccc34)nc(N)c21 [Example 163B] | pEC50 | 6.39
CC1(c2cccc(CCC(=O)O)c2)C(=O)Nc2nc(-c3nn(Cc4ccccc4F)c4cc(Cl)ccc34)nc(N)c21 (stereo not drawn) [Example 48A] | pEC50 | 6.59
C[C@H](O)[C@@H](NC(=O)CCc1ccc([C@]2(C)C(=O)Nc3nc(-c4nn(Cc5ccccc5F)c5ncccc45)nc(N)c32)cc1)C(=O)O [Example 107B] | pEC50 | 6.40

Can you share its pEC50? I mean this molecule: Cc1sc(C2(C)C(=O)Nc3nc(-c4nn(CCC(F)(F)C(F)(F)F)c5cc(Cl)ccc45)nc(N)c32)nc1-c1ccc(C(=O)O)cc1 (stereo not drawn) [Example 94B]
6.75

Another molecule to look at: CC1(c2ccc(CCC(=O)O)c(O)c2)C(=O)Nc2nc(-c3nn(CCC(F)(F)C(F)(F)F)c4cc(Cl)ccc34)nc(N)c21 (stereo not drawn) [Example 122B]
6.05

Then what about the molecule CC1(c2nn(C(C)(C)C(=O)O)c(=O)o2)C(=O)Nc2nc(-c3nn(CCC(F)(F)C(F)(F)F)c4cc(Cl)ccc34)nc(N)c21 (single isomer, unassigned) [Example 99B] ?
6.73

Similarly, CC(C)(CCc1coc(C2(C)C(=O)Nc3nc(-c4nn(Cc5ccccc5F)c5ncccc45)nc(N)c32)n1)C(=O)O (stereo not drawn) [Example 206B] ?
6.26

Same question for C[C@@]1(c2ccc(CCC(=O)N[C@H](CO)C(=O)O)cc2)C(=O)Nc2nc(-c3nn(Cc4ccccc4F)c4ncccc34)nc(N)c21 [Example 106B] please.
5.82

Please do the same for CC(C)(Cc1csc([C@]2(C)C(=O)Nc3nc(-c4nn(Cc5ccccc5F)c5ccccc45)nc(N)c32)n1)c1nn[nH]n1 (single isomer, unassigned) [Example 236A] as well.
6.32

Queued: CC1(c2ccnc(C(=O)O)c2)C(=O)Nc2nc(-c3nn(Cc4ccccc4F)c4cc(Cl)ccc34)nc(N)c21 (stereo not drawn) [Example 143B]
5.47

Also CC(C)(Cc1coc(C2(C)C(=O)Nc3nc(-c4nn(CC5CCCCC5)c5ccccc45)nc(N)c32)n1)C(=O)O (stereo not drawn) [Example 228A] , if possible.
7.19

Then this molecule: C[C@@]1(c2ccc(CCC(=O)O)cc2)C(=O)Nc2nc(-c3nn(CCCC(F)(F)F)c4cc(Cl)ccc34)nc(N)c21 [Example 41B]
6.11

###

target.entity: sGC α1/β1 heterodimer (Homo sapiens (Human), UniProt Q02108+Q02153)
protocol.notes: Cell-based sGC functional assay (cyclic GMP assay for sGC activator: CASA assay)
assay.context: CHO-K1, activity expressed as percentage of compound A (standard); CHO-K1/sGC cells; read-out: % Activation
metric.name: Emax (%)
Give your result in % as a bare value.

compound | metric.name | unit | val
CC1(c2ccc(CC(=O)O)cc2)C(=O)Nc2nc(-c3nn(Cc4ccccc4F)c4cc(Cl)ccc34)nc(N)c21 (stereo not drawn) [Example 117A] | Emax | % | 69
C[C@@]1(c2ccc(CCC(=O)O)cc2)C(=O)Nc2nc(-c3nn(CC4CC(F)(F)C4)c4cc(Cl)ccc34)nc(N)c21 [Example 163B] | Emax | % | 90.8
Cc1cc(C2(C)C(=O)Nc3nc(-c4nn(CCC(F)(F)C(F)(F)F)c5cc(Cl)ccc45)nc(N)c32)ccc1CCC(=O)O (stereo not drawn) [Example 121B] | Emax | % | 118
C[C@@]1(c2ccc(CCC(=O)O)cc2)C(=O)Nc2nc(-c3nn(Cc4ccccc4F)c4ncc(F)cc34)nc(N)c21 [Example 23B] | Emax | % | 109

Bench note: what Emax did CC[C@H](NC(=O)CCc1ccc([C@]2(C)C(=O)Nc3nc(-c4nn(Cc5ccccc5F)c5ncccc45)nc(N)c32)cc1)C(=O)O [Example 105B] show?
97

Another compound: CC1(c2ccc(CCP(=O)(O)O)cc2)C(=O)Nc2nc(-c3nn(Cc4ccccc4F)c4cc(Cl)ccc34)nc(N)c21 (stereo not drawn) [Example 257A]
84.7

From: patent US10030027B2
